Catalogue of Kd values
target: T1, human complement factor D purified from serum (human, UniProt P00746 26-253); assay: SPR MX96
T1 construct: serum-purified (CompTech); also called hCFD-Comptech; CFD
T1 sequence (P00746 26-253): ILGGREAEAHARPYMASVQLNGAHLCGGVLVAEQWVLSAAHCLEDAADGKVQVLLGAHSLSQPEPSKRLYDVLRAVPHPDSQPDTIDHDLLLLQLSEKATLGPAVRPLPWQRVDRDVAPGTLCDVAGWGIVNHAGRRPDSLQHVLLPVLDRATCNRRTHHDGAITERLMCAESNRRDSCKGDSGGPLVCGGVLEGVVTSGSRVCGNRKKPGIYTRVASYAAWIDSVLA
Number in nM, nothing else.

{"columns": ["BINDER", "Kd (nM)"],
 "data": [
  ["KCD005 (antibody, V domains shown, chimeric) VH: EVQLQQSGPELVKPGASVKISCKASGYTFTDHYMNWVKQSHGKSLEWIGDINPNNGGTSCNQKFKGKATLTVDKSSSTAYMELRSLTSGDSAVYYCTREGASFAFWGQGTLVTVSA VL: DVLMTQTPLSLPVSLGDQASISCRSSQSIVHSNGDTYLEWYLQKPGQSPKLLIYKVSNRFSGVPDRFSGSGSGTDFTLKISRVEAEDLGVYYCFQGSHVPVTFGAGTKLELK", 1.4],
  ["KCD212 (antibody, V domains shown) VH: EVHLVESGGDLVKPGGSLKLSCAASGFTFSRYGMSWVRQTPDKRLEWVATISSAGSYTYYPDSVKGRFTISRDNAKNTLFLQMSSLKSEDTAMYYCARPLNYYGTSSFDYWGQGTTLTVSS VL: QIVLTQSPAIMSASPGEKVTMTCRASSSVSSTYLHWYQQKPGSSPKLWIYSTSNLASGVPPRFSGSGSGTSYSLTISSVEAEDAATYYCQQYDSSPNTFGAGTKLELK", 0.47]
]}

Quick one: Kd of KCD139 (antibody, V domains shown) VH: EVQLQQSGAELVRPGSSVKMSCKTSGYTFTSYGINWVKQRPGQGLEWIGYIYIANGYTENNEKFKGKAKLTSDISSSTAYMQLSSLTSEDSAIYFCARRFDYAGALDYWGQGTSVTVSS VL: DIVLTQSPASLAVSLGQRATISCRASESVDSYGNSFMHWYQQKPGQPPKLLIHRASNLESGIPARFSGSGSRTDFTLTINPVEADDVAIYYCQQTNDDPYTFGGGTNLEIK ? 5.3
